Reported MIC S. pneum AB 34 values follow for various compounds
System: S. pneum AB 34
procedure.text: MIC, agar incorporation method
assay.context: agar incorporation
measurement.type: MIC S. pneum AB 34

>  <compound>
CC(=O)NC[C@H]1CN(c2ccc(N3CC4C(C3)C4N(C)Cc3ccc(C=O)o3)c(F)c2)C(=O)O1 (stereo partly shown)

>  <measurement.type>
MIC S. pneum AB 34

>  <result>
4 µg/mL

$$$$
>  <compound>
CC(=O)NC[C@H]1CN(c2ccc(N3C[C@@H]4[C@H](C3)[C@H]4N(C)Cc3ccc([N+](=O)[O-])s3)c(F)c2)C(=O)O1

>  <measurement.type>
MIC S. pneum AB 34

>  <result>
4 µg/mL

$$$$
>  <compound>
CC(=O)NC[C@H]1CN(c2ccc(N3CCN(C(=O)c4ccc([N+](=O)[O-])o4)CC3)c(F)c2)C(=O)O1

>  <measurement.type>
MIC S. pneum AB 34

>  <result>
2 µg/mL

$$$$
>  <compound>
CC(=O)NC[C@H]1CN(c2ccc(N3CCN(Cc4cccs4)CC3)c(F)c2)C(=O)O1

>  <measurement.type>
MIC S. pneum AB 34

>  <result>
8 µg/mL

$$$$
>  <compound>
CC(=O)NC[C@H]1CN(c2ccc(N3CCN(C(=O)c4ccoc4)CC3)c(F)c2)C(=O)O1

>  <measurement.type>
MIC S. pneum AB 34

>  <result>
4 µg/mL

$$$$
>  <compound>
CC(=O)NC[C@H]1CN(c2ccc(N3CC4C(C3)C4N(C)C(=O)c3ccoc3)c(F)c2)C(=O)O1 (stereo partly shown)

>  <measurement.type>
MIC S. pneum AB 34

>  <result>
4 µg/mL

$$$$
>  <compound>
CC(=O)NC[C@H]1CN(c2ccc(N3CCN(C(=O)c4ccc([N+](=O)[O-])s4)CC3)c(F)c2)C(=O)O1.Cl

>  <measurement.type>
MIC S. pneum AB 34

>  <result>
1 µg/mL

$$$$

###

Tested on: Eubacterium leutum
procedure.text: Agar dilution MIC, anaerobes
Format: cell-based
assay.context: Eubacterium, single isolates, anaerobic agar dilution; read-out: MIC Eubacterium leutum
Reported values of MIC for individual entries

>  <compound>
C[C@@H](O)[C@H]1C(=O)N2C(C(=O)O)=C(SCCN=CN)C[C@H]12

>  <quantity.unit>
µg/mL

>  <MIC>
0.25

$$$$
>  <compound>
CC(=O)NC[C@H]1CN(c2ccc(N3CCOCC3)c(F)c2)C(=O)O1

>  <quantity.unit>
µg/mL

>  <MIC>
1

$$$$
>  <compound>
COc1c(N2C[C@@H]3CCCN[C@@H]3C2)c(F)cc2c(=O)c(C(=O)O)cn(C3CC3)c12

>  <quantity.unit>
µg/mL

>  <MIC>
0.5

$$$$
>  <compound>
Cc1ncc([N+](=O)[O-])n1CCO

>  <quantity.unit>
µg/mL

>  <MIC>
0.25

$$$$
>  <compound>
COc1c(N2CCNC(C)C2)c(F)cc2c(=O)c(C(=O)O)cn(C3CC3)c12 (centres unmarked)

>  <quantity.unit>
µg/mL

>  <MIC>
0.25

$$$$
